Provenance of the data: the supplement of paper PMC12455559

# experiment-summary: PET hydrolysis, aromatic products released after 48 h (umol product/mg enzyme); higher = more PET depolymerization activity
# condition-set: substrate: cryPow; 60 °C; pH 6.5
quantity-measured: PET hydrolysis
API note: the answer field is a bare number with no unit suffix.

Please give the measured PET hydrolysis for this sequence: AANPYQRGPAPTAASVAAVTGPFATASVSVPRGNGFGGGVIYYPTDTSQGTFGGLAISPGLNGTWPGIAWLGSRLASQGFIVFGIETNNLNDSPTSRGTQLLAALDYLAQRSSVRSRLDPGRLAVAGHSMGGGGALDAALRRPSLKAAIGNAPYLPSNTLAGNRVPTLIYAMQNDTLVPPSRLTSLYNTIPATTERAYLEITGAGHNYIGQPSTTLARTMIPWLKIFIDNDTRFSQFLCPLADQSGIRQYRSSCPLVPATTRALTAAAG [DP043]
62

* * *

# experiment-summary: purified protein yield per well (BCA); higher = higher soluble expression
quantity-measured: purified protein yield per well

- MASITNPGPYSVSLLIEGVDDIRNGPDYDGATIYYPSNGVPPYAGIAIIPGYCGVETDIENWGPFYASHGIIAITLGTNNPCADWPAVRALALLDAIETIKSENTREGSPLNGKVDVNSFAVSGWSMGGGGAELAASIDPSLKAVVGLCPWLDLNGFETSDLIHDVPVLIFTGQNDDIAGSAEYGYMHYTNTPNSTDKLYFEIENEGHEAANAPNMAGGEKGIYALSWLTI [TEP051]: < 25 µg

Now look at this entry.
Please give the measured purified protein yield per well for this sequence: LTLDDLKKDGPYAVSSQTIPGSGFGKGTIYSPNAAGKYALVAVVPGFVSAESSMTEISKRLATHGFVVVTIGTKTLLDFPSSRASQLLAALKAASAVTTGPVAGKIDVTRQVVSGWSMGGGGTLEAAASTPGLKAAVAYAPWNLSSTKYKAITVPSAIIGGTADTVASVSAHSQPFYNAIPATTRKLLGVIQGADHFFPNKAVDPASYTNIAWVKRFADGNTAYAPFLAGQDAAWASFVSTGPF [ESM087]
< 25 µg

* * *

# experiment-summary: PET hydrolysis, aromatic products released after 48 h (umol product/mg enzyme); higher = more PET depolymerization activity
# condition-set: substrate: cryPow; 40 °C; pH 8.5
As shown below, each of these sequences has a reported PET hydrolysis value.

Known results for sequences:
- DPPTHAKGVKPGPSELAAPSASDLAADGPHAVTTTAISGSVTPGFGAATIYAPASGSGYGGVAISPGYMSTQSAVSWLGPRLASHGFVVITFDTTTIWDNPDSRGVQLLAALDYLTGSSPARGQVDASRLAVMGHSMGGGGSLAAAKSRPSIDAAIPLTPWHTDKTWPEVSTPTLIVGAENDGIAPVASHAEPFYESLATSTDRAYLELNAATHSAPNSENAQISTYSLAWLKRFVDGDTSVDPILCPGPAASSTVEEYRSSCPF [DP019]: < 3
- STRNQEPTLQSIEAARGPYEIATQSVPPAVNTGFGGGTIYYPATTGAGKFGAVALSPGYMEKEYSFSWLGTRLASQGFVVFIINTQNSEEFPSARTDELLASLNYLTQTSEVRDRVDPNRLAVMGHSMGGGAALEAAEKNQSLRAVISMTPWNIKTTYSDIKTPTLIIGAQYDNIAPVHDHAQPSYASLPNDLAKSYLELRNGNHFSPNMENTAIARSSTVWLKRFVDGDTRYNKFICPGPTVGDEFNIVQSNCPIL [DP079]: < 3

Now look at this entry.
Please give the measured PET hydrolysis for this sequence: QTNPFQRGPAPTEATLEATRGPMATSQFTVSRPSGYRAGTVYYPTNAGGTVGGIVVVPGYTAYQSDINWWGPRLASWGFIVMTIDTNSTLDQPASRSRQQLAALDQLATLSRTSSSPIYNKLDTNRMGVMGWSMGGGGSLISTENRPSLKASIPFAPWNSTENFSSVTVPTLIIACQDDSIAPVYSHASPFYNSMTRNPKQFLEVRGEGHYCANSSNSDKDFLGKKGVAWMKRFMDNDTRFTTFACTNQESSLDVSDFRTARCS [DP032]
< 3
